- measurementProtocol: Pharmacokinetic studies of certain compounds in female Balb/c mice (Example 5)
- Format: in vivo
- runConditions: mouse, plasma, I-3 IV 1 mg/kg
recordedMetric: clearance (L/h/kg)
Quick note: give the figure in L/h/kg, leave out the unit.

Find the recorded clearance belonging to `CC(C)Cc1sc(Nc2ncc(-c3cccs3)cc2C(=O)O)nc1C1CCCCC1` and report it. 1.2

---

- measurementProtocol: Pharmacokinetic studies of certain compounds in female Balb/c mice (Example 5)
- Format: in vivo
- runConditions: female, Balb/c, mouse, plasma, po, 30 mg/kg, I-1 PO 30 mg/kg, 1 hr, read-out: Plasma concentration Individual
recordedMetric: concentration at 1 h (ng/mL)
Quick note: give the figure in ng/mL, leave out the unit.

Find the recorded concentration at 1 h belonging to `CC(C)Cc1sc(Nc2ncc(-c3cccs3)cc2C(=O)O)nc1C1=CCOCC1` and report it. 320
